- system: Neurogenic locus notch homolog protein 2 (Homo sapiens)
- test: small molecules binding Notch2 protein – biochemical, small-molecule microarray, 635 nm fluorescence, stem cell growth factors, primary screen (AID 1073)
- reported_conditions: higher = more signal

compound	system	composite z-score
O=C1NC(=O)C2C1C=CC(C(O)C=Cc1ccc([N+](=O)[O-])cc1)N2Nc1ccc(Cl)cc1Cl (stereo unspecified)	Neurogenic locus notch homolog protein 2 (Homo sapiens)	1.69
COCCOC(=O)N1C(=O)[C@@]2(c3ccccc31)[C@H](C(N)=O)[C@H]1C(=O)O[C@H](c3ccccc3)[C@H](c3ccccc3)N1[C@@H]2c1ccc(O)cc1	Neurogenic locus notch homolog protein 2 (Homo sapiens)	-0.248
CC(C)Cc1ccc(CN2CC[C@@H](N)C2)cc1	Neurogenic locus notch homolog protein 2 (Homo sapiens)	-1.3
CN(C)C(=O)[C@]1(Cc2ccccc2)N=C(c2ccc(OCCCO)cc2)O[C@@H]1c1ccccc1N=[N+]=[N-]	Neurogenic locus notch homolog protein 2 (Homo sapiens)	1.33
O=C1NC(=O)C2C1C=CC(C(O)c1ccc(-c3ccccc3)s1)N2Nc1ccc(Cl)cc1Cl (stereo unspecified)	Neurogenic locus notch homolog protein 2 (Homo sapiens)	1.21
COC(=O)[C@@]1(Cc2ccc(F)cc2)[C@H]2c3cc(C(=O)N(C)C)n(Cc4ccc(C)o4)c3C[C@H]2CN1C(=O)c1ccccc1	Neurogenic locus notch homolog protein 2 (Homo sapiens)	0.0386
CC(C)[Si](C#C[Si](C(C)C)(C(C)C)C(C)C)(O[C@H](C)c1cn(Cc2ccccc2)nn1)C(C)C	Neurogenic locus notch homolog protein 2 (Homo sapiens)	0.795
O=C1C[C@@](C(=O)NCc2ccccc2)(c2ccc([N+](=O)[O-])cc2)[C@@H](c2ccc(CO)cc2)N1CC12CC3CC(CC(C3)C1)C2	Neurogenic locus notch homolog protein 2 (Homo sapiens)	0.815
CC(=O)n1cc(C(O)C2C=CC3C(=O)NC(=O)C3N2Nc2ccccn2)c2ccccc21 (stereo unspecified)	Neurogenic locus notch homolog protein 2 (Homo sapiens)	0.887
COCCCNC(=O)[C@]1(Cc2ccccc2)N=C(c2ccc(OCCCO)cc2)O[C@@H]1c1ccccc1CN=[N+]=[N-]	Neurogenic locus notch homolog protein 2 (Homo sapiens)	1.49
CN1CCC(CCCO)=CC1c1cccs1 (stereo unspecified)	Neurogenic locus notch homolog protein 2 (Homo sapiens)	-1.01
CCOC(=O)C1=CC[C@@H](c2ccccc2)N(S(=O)(=O)c2ccc(C)cc2)[C@H]1c1ccc(CC)cc1	Neurogenic locus notch homolog protein 2 (Homo sapiens)	1.4
C=CCNC(=O)[C@@H]1[C@H]2C(=O)O[C@H](c3ccccc3)[C@H](c3ccccc3)N2[C@H](c2ccc(OCCO)cc2)[C@@]12C(=O)N(C(=O)OCCOC)c1ccc(C#CCNC(N)=O)cc12	Neurogenic locus notch homolog protein 2 (Homo sapiens)	1.25
COc1ccc(-c2cc3c(c(Cc4ccccc4)n2)[Si](C(C)C)(C(C)C)OC3)cn1	Neurogenic locus notch homolog protein 2 (Homo sapiens)	0.0333
O=C1C2C=CC(C(O)c3c(F)cccc3Cl)N(Nc3ccccc3F)C2C(=O)N1c1ccccc1 (stereo unspecified)	Neurogenic locus notch homolog protein 2 (Homo sapiens)	1.65
CC(C)[Si](C#CCCCC#N)(O[C@H](c1ccccc1)c1cn(Cc2cccc(Cl)c2)nn1)C(C)C	Neurogenic locus notch homolog protein 2 (Homo sapiens)	0.799
CCCC[C@H]1C[C@@H]1[C@@H]1N(P(=O)(c2ccccc2)c2ccccc2)C[C@@](O)(c2ccccc2)CC12CC2	Neurogenic locus notch homolog protein 2 (Homo sapiens)	1.45
CCCNC(=O)[C@@]1(Sc2ccc(C)cc2)CC(=O)N(Cc2ccccc2C(F)(F)F)[C@@H]1c1ccc(CO)cc1I	Neurogenic locus notch homolog protein 2 (Homo sapiens)	0.267
[N-]=[N+]=NCc1ccccc1[C@H]1OC(c2ccc(OCCCO)cc2)=N[C@@]1(Cc1ccccc1)C(=O)N1CCCCC1	Neurogenic locus notch homolog protein 2 (Homo sapiens)	1.46
C[N+](C)(C)CCCCCCNC(=O)[C@H]1C[C@H]2C(=O)N[C@@H](Cc3ccccc3)C(=O)N2[C@H]1c1cccc(OCCO)c1	Neurogenic locus notch homolog protein 2 (Homo sapiens)	0.357
O=C(O)[C@@]1(CCS(=O)(=O)c2ccccc2)N=C(c2ccc(OCCCO)cc2)O[C@H]1c1ccccc1	Neurogenic locus notch homolog protein 2 (Homo sapiens)	0.604
COCCOC(=O)N1C(=O)[C@@]2(c3cc(C#Cc4ccc(OC)cc4)ccc31)[C@H](c1ccc(O)cc1)N1[C@H](c3ccccc3)[C@H](c3ccccc3)OC(=O)[C@H]1[C@@H]2C(=O)Nc1nc2ccccc2s1	Neurogenic locus notch homolog protein 2 (Homo sapiens)	1.29
CCCC=C(CCC)[C@@H](NC(=O)OCC(C)C)c1ccccc1	Neurogenic locus notch homolog protein 2 (Homo sapiens)	1.33
COCCOC(=O)N1C(=O)[C@@]2(c3cc(C#CC4=CCCCC4)ccc31)[C@H](c1ccc(OCCO)cc1)N1[C@H](c3ccccc3)[C@H](c3ccccc3)OC(=O)[C@H]1[C@@H]2C(=O)N1CCc2cc(OC)c(OC)cc2C1	Neurogenic locus notch homolog protein 2 (Homo sapiens)	1.43
COc1ccc(NC(=O)O[C@H]2[C@H](OC(=O)c3cc4ccccc4[nH]3)[C@@H](OC(=O)c3cc4ccccc4[nH]3)[C@@H](OC)O[C@@H]2CO)cc1	Neurogenic locus notch homolog protein 2 (Homo sapiens)	0.23
O=C1OCCC=C[C@H]2OC34C=CCN(CCN5CCOCC5)C(=O)[C@H]3N(CCCCCO)C(=O)[C@@H]4C12 (stereo partly specified)	Neurogenic locus notch homolog protein 2 (Homo sapiens)	-0.419
CC(=O)Nc1cc(Br)ccc1C(=O)NCc1ccccc1	Neurogenic locus notch homolog protein 2 (Homo sapiens)	0.359
COCCCNC(=O)[C@@]1(Cc2ccccc2CN=[N+]=[N-])N=C(c2ccc(OCCCO)cc2)O[C@H]1c1ccccc1CN=[N+]=[N-]	Neurogenic locus notch homolog protein 2 (Homo sapiens)	1.27
COCC(=C=CC[C@H](O)c1cccc(OCCO)c1)CCO	Neurogenic locus notch homolog protein 2 (Homo sapiens)	-0.137
COCC(=C=CC[C@@H](O)c1ccc(OCCO)cc1)C[C@@H](O)c1ccccn1	Neurogenic locus notch homolog protein 2 (Homo sapiens)	0.687
COC(=O)C(CC#Cc1ccc2c(c1)[C@]1(C(=O)N2)[C@H](c2ccccc2OCCO)N2[C@H](c3ccccc3)[C@H](c3ccccc3)OC(=O)[C@H]2[C@@H]1C(=O)O)C(=O)OC	Neurogenic locus notch homolog protein 2 (Homo sapiens)	0.275

====

- test: ATP-based viability of Huh7 replicon cells – cell-based, CellTiter-Glo luminescence, basal, 48 h, cytotoxicity control for HCV replication inhibitor project, primary screen (AID 1143);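 also: Huh7 hepatoma cells carrying a hepatitis C replication reporter with no stimulus; test concentration not given here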
- reported_conditions: higher = more signal, called active from +8 up or from −8 down

molecule	z-score
COc1ccc([Si](C)(C)[C@@H]2[C@@H](CC(=O)N3CCC[C@H]3CO)O[C@]3(C(=O)N(Cc4cccc(I)c4)c4ccccc43)[C@H]2C)cc1	-4.27
COC(=O)c1c2oc(c1C(=O)OC)C(=O)N[C@@H](C(C)C)Cn1cc(nn1)C1(CCCCC1)NC(=O)N[C@H](CO)CC2	0.24
CC=CC(O)C1C=CC2C(=O)N(C)C(=O)C2N1N(c1ccccc1)c1ccccc1 (centres undefined)	0.695
CCCNC(=O)[C@@H]1c2ccccc2C(=O)N(Cc2ccccc2OC)[C@H]1c1ccc(CO)cc1	-0.67

====

- system: Follistatin (Homo sapiens) (UniProt P19883)
- Sequence (P19883 whole entry, looked up): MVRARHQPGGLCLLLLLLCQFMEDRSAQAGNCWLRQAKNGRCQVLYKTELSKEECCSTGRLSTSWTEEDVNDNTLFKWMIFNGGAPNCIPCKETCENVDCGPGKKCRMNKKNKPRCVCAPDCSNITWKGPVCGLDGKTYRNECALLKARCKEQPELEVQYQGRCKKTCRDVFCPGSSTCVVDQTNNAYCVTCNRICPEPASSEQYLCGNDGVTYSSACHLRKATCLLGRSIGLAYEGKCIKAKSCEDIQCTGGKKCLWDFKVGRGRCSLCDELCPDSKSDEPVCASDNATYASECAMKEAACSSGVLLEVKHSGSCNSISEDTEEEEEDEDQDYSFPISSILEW
- test: FST protein binding to printed compounds – biochemical, small-molecule microarray, 635/667 nm fluorescence, primary screen (AID 1132)
- reported_conditions: 635 nm fluorescence, higher = more signal
Criterion: composite z-score meeting or surpassing 0.4. Met: condition met. Not met: condition not met.

compound	label_class
CCCC(=O)N(CCc1c[nH]c2ccccc12)[C@@H]1CC(C(=O)NCCO)=C[C@H](Oc2c(I)cc(CO)cc2OC)[C@H]1O	condition not met
[N-]=[N+]=NCc1ccccc1[C@@H]1OC(c2ccc(OCCCO)cc2)=N[C@]1(CCS(=O)(=O)c1ccccc1)C(N)=O	condition met
CS(=O)(=O)CCOC(=O)C1=CC(CCCO)=CC(c2ccc(CN3CCCC3)cc2)N(Cc2cccc(OC(F)(F)F)c2)C=C1C(=O)OCCS(C)(=O)=O (stereo unspecified)	condition met
C=CCNC(=O)[C@@H]1[C@H]2C(=O)O[C@H](c3ccccc3)[C@H](c3ccccc3)N2[C@H](c2ccc(OCCO)cc2)[C@@]12C(=O)N(C(=O)OCCOC)c1ccc(C#CCC(C(=O)OC)C(=O)OC)cc12	condition met
CCCC[C@H]1C[C@@H]1[C@@H]1N(P(=O)(c2ccccc2)c2ccccc2)C[C@@](O)(c2ccccc2)CC12CC2	condition not met
O[C@@H](Cc1ccccc1)[C@@H](/C=C/C1CC1)NCc1cccc(Cl)c1	condition not met
CCOC(=O)C[C@H]1[C@H](OC(=O)c2ccc(C(=O)c3ccccc3)cc2)[C@@H](NC(=O)c2ccccc2)c2cc(OCCCO)ccc2N1C(=O)c1ccccc1	condition met
C=CCN1C(=O)[C@]2(O[C@H](CCO)[C@@H]([Si](C)(C)c3ccc(OC)cc3)[C@@H]2C)c2cc(N(C=O)c3ccccc3)ccc21	condition not met
O=C1OCCC=C[C@H]2OC34C=CCN(CCN5CCOCC5)C(=O)[C@H]3N(CCCCCO)C(=O)[C@@H]4C12 (stereo partly specified)	condition not met
O=C1O[C@H](c2ccccc2)[C@H](c2ccccc2)N2[C@H]1[C@@H](C(=O)NC[C@H](O)c1ccccc1)[C@]1(C(=O)Nc3ccc(C#CC4=CCCCC4)cc31)[C@H]2c1ccccc1OCCO	condition met
NCCCCCCNC(=O)[C@H]1C[C@H]2C(=O)N[C@@H](Cc3ccccc3)C(=O)N2[C@H]1c1cccc(OCCO)c1	condition met
CCCC1(C(=O)OC)C=C2C(=C(c3ccccc3)C(=O)C2C)CN1 (stereo unspecified)	condition not met
CCOC(=O)C1=C[C@@H](C(C)C)N(S(=O)(=O)c2ccc(C)cc2)[C@H]1c1ccccc1F	condition met
CC[C@@H]1C=C(C(=O)O)[C@H](c2ccc(C)cc2)N1S(=O)(=O)c1ccc(C)cc1	condition not met
CC(C)NC(=O)[C@@H]1c2ccccc2C(=O)N(C(C)C)[C@H]1c1ccc(CO)cc1	condition not met
C=CCC(OC(C)=O)[C@@H]1[C@@H](N(Cc2ccc(-c3cccc(C(F)(F)F)c3)o2)C(=O)c2cccc3ccccc23)c2cc(OCCCO)ccc2N1C(=O)Cc1ccc2ccccc2c1 (stereo partly specified)	condition not met
COC(=O)[C@]1(Cc2ccccc2)N=C(c2ccc(OCCCO)cc2)O[C@@H]1c1ccccc1N=[N+]=[N-]	condition met
CCOC(=O)C1=CC[C@@H](c2ccccc2)N(S(=O)(=O)c2ccc(C)cc2)[C@H]1c1ccc(CC)cc1	condition not met
C=CC1c2cc(O)c(OC)cc2CCN1Cc1cccc(OC(F)(F)F)c1 (stereo unspecified)	condition not met
CC(C)N1CC=CC23O[C@@H]4C=CCOC(=O)[C@@H]4[C@H]2C(=O)N(CCCCCO)[C@@H]3C1=O (stereo partly specified)	condition not met
COC(=O)c1c(CC[C@@H](CO)NC(=O)N[C@@H](Cc2ccccc2)Cn2cc(-c3ccccn3)nn2)oc(C(=O)N2CCOCC2)c1C(=O)OC	condition met
O=C1[C@H]2C=C(Br)[C@H](C[C@@H]2OCCCCCCO)[C@@]12CO2	condition not met
C=C(CCCC)/C(=C/C[C@H](OC(C)=O)c1ccc(OCCO)cc1)c1cnc2ccccc2c1	condition met
C=CC[C@]12N=C(c3ccc(OCCCO)cc3)O[C@H]1c1ccccc1N(CCS(=O)(=O)c1ccccc1)C2=O	condition met
CCN(CC)c1ccc(N2CC=CC34O[C@@H]5/C=C\CCC(C)OC(=O)C5[C@H]3C(=O)N(CCCCCO)[C@@H]4C2=O)cc1 (stereo partly specified)	condition not met
Cc1ccc(/C=C/C=O)cc1	condition not met
CC(=O)n1cc(C(O)C2C=CC3C(=O)NC(=O)C3N2Nc2ccccn2)c2ccccc21 (stereo unspecified)	condition not met
C=CCN1Cc2ccccc2[C@@H]2OC(c3ccc(OCCCO)cc3)=N[C@]2(CCS(=O)(=O)c2ccccc2)C1=O	condition met
C#CCN(C/C=C/c1ccccc1)[C@H](CO)c1ccccc1	condition met
CCC(CC)C(O)C1C=CC2C(=O)N(c3ccccc3)C(=O)C2N1Nc1ccccc1 (stereo unspecified)	condition met

Where these numbers come from: PubChem BioAssay
